pIC50 overview
EXPERIMENT: Antiproliferative activity against H661 cells after 48 hrs by XTT assay
Assay type: functional, cell-based
SETTINGS: Homo sapiens, NCI-H661, 48 h
pIC50: −log10 of the molar value.
MEASUREMENT NAME: pIC50

>>> df
                           substance_smiles  readout_number
0  O=C(CCCCCN1C(=O)c2ccccc2N(Cc2ccccc2)C(=O)[C@@H]1Cc1ccccc1)NO            5.22
1  O=C(CCCCCN1C(=O)c2ccccc2N(Cc2cccc3ccccc23)C(=O)[C@@H]1Cc1ccccc1)NO            4.80
2  Cc1cc(C)cc(CN2C(=O)[C@H](Cc3ccccc3)N(CCCCCC(=O)NO)C(=O)c3ccccc32)c1            5.10
3  O=C(CC/C=C/CN1C(=O)c2ccccc2N(Cc2ccccc2)C(=O)[C@@H]1Cc1ccccc1)NO            5.10
4  Cc1cc(C)cc(CN2C(=O)[C@H](Cc3ccccc3)N(C/C=C/CCC(=O)NO)C(=O)c3ccccc32)c1            4.77
5  CC(/C=C/C(=O)NO)=C\[C@@H](C)C(=O)c1ccc(N(C)C)cc1            7.07
